These measurements were taken from patent US20170232083A1.

Test system: PBMC (polyclonal gluten-specific T cells) of paediatric and adult CD patients
Assay: IFN-γ ELISpot of PBMC after 3 day oral wheat challenge (SFU, % of maximal peptide response, dominance scores, EC50; Examples 5-6)
Type: cell-based, human
Conditions: subject W (3-5yrs/6-10yrs part), following wheat challenge
# cutoff 8 SFU applies to Cross-reactive T cell response; >= gives t, < gives f

> print(dat)
      residue.codes                                    system  class.assignment
1     QPFPQPEQQLPLQ  PBMC (polyclonal gluten-specific T cells) of paediatric and adult CD patients                 f
2  NPLQPEQPFPLQPQPP  PBMC (polyclonal gluten-specific T cells) of paediatric and adult CD patients                 f
3     LPFPQPEQPFVVV  PBMC (polyclonal gluten-specific T cells) of paediatric and adult CD patients                 t
4     QEFPQPEQPFPQQ  PBMC (polyclonal gluten-specific T cells) of paediatric and adult CD patients                 f
5    QPFPQPEQPFPWQP  PBMC (polyclonal gluten-specific T cells) of paediatric and adult CD patients                 t
6    PEQPFQPEQPFPQQ  PBMC (polyclonal gluten-specific T cells) of paediatric and adult CD patients                 f
7     QPFPQPEQPIPYQ  PBMC (polyclonal gluten-specific T cells) of paediatric and adult CD patients                 t
8     QPFPQPEQELPLQ  PBMC (polyclonal gluten-specific T cells) of paediatric and adult CD patients                 f
9     QPFPQPEQPTPIQ  PBMC (polyclonal gluten-specific T cells) of paediatric and adult CD patients                 f

----------
Reported Dominance score Mean all ages values for a set of substances
Tested on: PBMC (polyclonal gluten-specific T cells) of paediatric and adult CD patients
Test: IFN-γ ELISpot of PBMC after 3 day oral wheat challenge (SFU, % of maximal peptide response, dominance scores, EC50; Examples 5-6)
Format: cell-based, human
Conditions: CD children, all ages, following wheat challenge (Table 9)
OBSERVABLE: Dominance score Mean all ages

> print(dat)
                                  substance                                    system                     observable  endpoint.value
1        W13 (LQPFPQPELPYLQP) [Peptide W13]  PBMC (polyclonal gluten-specific T cells) of paediatric and adult CD patients  Dominance score Mean all ages            30.7
2  QPFPQPEQPFPWQ [Peptide W03, contains DQ2.5-glia-w1 and w2]  PBMC (polyclonal gluten-specific T cells) of paediatric and adult CD patients  Dominance score Mean all ages            54.2
3               QPFPQPQQPIPVQ [Peptide W04]  PBMC (polyclonal gluten-specific T cells) of paediatric and adult CD patients  Dominance score Mean all ages            45.6
4         W32 (PFPEQPEQPFPQP) [Peptide W32]  PBMC (polyclonal gluten-specific T cells) of paediatric and adult CD patients  Dominance score Mean all ages            30.2
5              LQPFPQPELPFPQP [Peptide W06]  PBMC (polyclonal gluten-specific T cells) of paediatric and adult CD patients  Dominance score Mean all ages            53.2
6         W16 (FPQPEQEFPQPQQ) [Peptide W16]  PBMC (polyclonal gluten-specific T cells) of paediatric and adult CD patients  Dominance score Mean all ages            32.6

----------
Tested on: PBMC (polyclonal gluten-specific T cells) of paediatric and adult CD patients
Experiment: IFN-γ ELISpot of PBMC after 3 day oral wheat challenge (SFU, % of maximal peptide response, dominance scores, EC50; Examples 5-6)
Type: cell-based, human
Settings: patient H; max peptide 17 SFU
OBSERVABLE: Significant response as percentage of maximal peptide SFU

> print(dat)
                   residue.codes      endpoint.value
 1                LQPFPQPELPYSQP        + (>70% = +)
 2   LPYPQPELPYPQP [Peptide W01]  ′′′ (41-70% = ′′′)
 3                LQPFPQPQLPYPQP        + (>70% = +)
 4                LQPRPQPELPYPQP  ′′′ (41-70% = ′′′)
 5                 PIPQQPQQPFPLQ  ′′′ (41-70% = ′′′)
 6  LQPFPQPELPFPQP [Peptide W06]        + (>70% = +)
 7                 QPFPQPEQPIPVQ  ′′′ (41-70% = ′′′)
 8                 PFPEQPEQPFPQP        + (>70% = +)
 9                GLERPWQEQPLPPQ        + (>70% = +)
10                 PFPLQPEQPFPQP  ′′′ (41-70% = ′′′)
11                 LPYPQPQLPYPQP        + (>70% = +)

----------
The entries below come with measured Cross-reactive T cell response values attached.
System: PBMC (polyclonal gluten-specific T cells) of paediatric and adult CD patients
Experiment: IFN-γ ELISpot of PBMC after 3 day oral wheat challenge (SFU, % of maximal peptide response, dominance scores, EC50; Examples 5-6)
Assay type: cell-based, human
Conditions: subject six (3-5yrs/6-10yrs part), following wheat challenge
OBSERVABLE: Cross-reactive T cell response (SFU)

> print(dat)
      residue.codes                      observable  endpoint.value
1  PEQPFPEQPQPYPQQP  Cross-reactive T cell response               5
2     QPFPQPEQELPLQ  Cross-reactive T cell response               5
3     QPFPQPEQPFRQQ  Cross-reactive T cell response               5

----------
System: PBMC (polyclonal gluten-specific T cells) of paediatric and adult CD patients
Assay: IFN-γ ELISpot of PBMC after 3 day oral wheat challenge (SFU, % of maximal peptide response, dominance scores, EC50; Examples 5-6)
Type: cell-based, human
Details: subject two (3-5yrs/6-10yrs part), following wheat challenge
OBSERVABLE: Cross-reactive T cell response

> print(dat)
     residue.codes                                    system  endpoint.value
1  QPEQPFPLQPEQPVP  PBMC (polyclonal gluten-specific T cells) of paediatric and adult CD patients           6 SFU
2   PEQPFQPEQPFPQQ  PBMC (polyclonal gluten-specific T cells) of paediatric and adult CD patients           6 SFU
3    QPFPQPEQPTPIQ  PBMC (polyclonal gluten-specific T cells) of paediatric and adult CD patients          20 SFU

----------
Test system: PBMC (polyclonal gluten-specific T cells) of paediatric and adult CD patients
Assay: IFN-γ ELISpot of PBMC after 3 day oral wheat challenge (SFU, % of maximal peptide response, dominance scores, EC50; Examples 5-6)
Assay type: cell-based, human
Settings: subject J
OBSERVABLE: Significant response as a percentage of maximal peptide SFU

> print(dat)
    residue.codes      endpoint.value
1   LPFPQPEQPFVVV      ′ (11-20% = ′)
2   QPFPQPEQPTPIQ  ′′′ (41-70% = ′′′)
3   QPFPQPEQPIPQQ  ′′′ (41-70% = ′′′)
4   QPFPQPEQELPLQ    ′′ (21-40% = ′′)
5  FPQTEQPEQPFPQP    ′′ (21-40% = ′′)
6   QEFPQPEQPFPQQ  ′′′ (41-70% = ′′′)
7   QLFPLPEQPFPQP      ′ (11-20% = ′)
8  PEQPFQPEQPFPQQ      ′ (11-20% = ′)
9   QPFPQPEQPFPQS    ′′ (21-40% = ′′)

----------
Test system: PBMC (polyclonal gluten-specific T cells) of paediatric and adult CD patients
Test: IFN-γ ELISpot of PBMC after 3 day oral wheat challenge (SFU, % of maximal peptide response, dominance scores, EC50; Examples 5-6)
Assay type: cell-based, human
Settings: patient five; max peptide 48 SFU
OBSERVABLE: Significant response as percentage of maximal peptide SFU

> print(dat)
                  residue.codes                                    system    endpoint.value
1                 FPQPEQEFPQPQQ  PBMC (polyclonal gluten-specific T cells) of paediatric and adult CD patients  ′′ (21-40% = ′′)
2                 PFPLQPEQPFPQP  PBMC (polyclonal gluten-specific T cells) of paediatric and adult CD patients      + (>70% = +)
3  LQPFPQPELPFPQP [Peptide W06]  PBMC (polyclonal gluten-specific T cells) of paediatric and adult CD patients  ′′ (21-40% = ′′)
4                 PFPEQPEQPYPQQ  PBMC (polyclonal gluten-specific T cells) of paediatric and adult CD patients  ′′ (21-40% = ′′)
5   QPFPQPQQPIPVQ [Peptide W04]  PBMC (polyclonal gluten-specific T cells) of paediatric and adult CD patients      + (>70% = +)
6                 QPFPQPEQPIPVQ  PBMC (polyclonal gluten-specific T cells) of paediatric and adult CD patients      + (>70% = +)
